All values here come from patent US11986532B2.

# Tested Target: BCL6 (Homo sapiens)
# Construct: endogenous in cells; host or cells: T47D breast cancer epithelial cells
# Method: Immunofluorescence protocol for high content imaging of BCL6 (degradation) in T47D cells, 3 days compound treatment
# Assay type: cell-based
# Stated Conditions: T47D, read-out: Mean Dmax (%)** category
Attribute Measured: Dmax

As a guide, the following entries are already answered.
{"columns": ["Compound", "Dmax"],
 "data": [
  ["CNC(=O)COc1cc2cc(Nc3nc(N4CCC(O[C@H]5C[C@H](N6CCN(c7ccc8c(c7)C(=O)N(C7CCC(=O)NC7=O)C8=O)C(C)(C)C6)C5)CC4)ncc3Cl)ccc2n(C(C)C)c1=O (stereo partly shown) [Compound 367]", "≥ 70%"],
  ["CNC(=O)COc1cc2cc(Nc3nc(N4CCC(O[C@H]5C[C@H](N6CCC7(CC6)CN(c6ccc8c(c6)CN(C6CCC(=O)NC6=O)C8=O)C7)C5)CC4)ncc3Cl)ccc2n(C(C)C)c1=O (stereo partly shown) [Compound 366]", "≥ 70%"],
  ["CNC(=O)COc1cc2cc(Nc3nc(N4CCC(O[C@H]5C[C@H](N6C[C@H](C)N(c7ccc8c(c7)C(=O)N(C7CCC(=O)NC7=O)C8=O)[C@@H](C)C6)C5)CC4)ncc3Cl)ccc2n(C(C)C)c1=O (stereo partly shown) [Compound 246]", "50 to 70%"],
  ["CNC(=O)COc1cc2cc(Nc3nc(N4CCC(OC5CN(C6CCN(c7ccc8c(c7F)CN(C7CCC(=O)NC7=O)C8=O)CC6)C5)CC4)ncc3Cl)ccc2n(C(C)C)c1=O (stereo not shown) [Compound 260]", "50 to 70%"],
  ["CNC(=O)COc1cc2cc(Nc3nc(N4CCC(O[C@H]5C[C@H](N6CCN(c7cc(OC)c8c(c7)C(=O)N(C7CCC(=O)NC7=O)C8=O)CC6)C5)CC4)ncc3Cl)ccc2n(C(C)C)c1=O (stereo partly shown) [Compound 379]", "50 to 70%"]
]}

State the recorded Dmax for this entry: CNC(=O)COc1cc2cc(Nc3nc(N4CCC(O[C@H]5C[C@H](N6CC=C(c7ccc8c(c7)C(=O)N(C7CCC(=O)NC7=O)C8=O)CC6)C5)CC4)ncc3Cl)ccc2n(C(C)C)c1=O (stereo partly shown) [Compound 303]
50 to 70%

Check CNC(=O)COc1cc2cc(Nc3nc(N4CCC(O[C@H]5C[C@H](N6CCC7(CCN(c8ccc9c(c8)C(=O)N(C8CCC(=O)NC8=O)C9=O)CC7)CC6)C5)CC4)ncc3Cl)ccc2n(C(C)C)c1=O (stereo partly shown) [Compound 343] too.
50 to 70%

Check CNC(=O)COc1cc2cc(Nc3nc(N4CCC(O[C@H]5C[C@H](N6CCC7(CN(c8ccc9c(c8)CN(C8CCC(=O)NC8=O)C9=O)C7)C6)C5)CC4)ncc3Cl)ccc2n(C(C)C)c1=O (stereo partly shown) [Compound 344] too.
< 50%

Check CNC(=O)COc1cc2cc(Nc3nc(N4CCC(CN5CCC6(CN(c7ccc8c(c7)C(=O)N(C7CCC(=O)NC7=O)C8=O)C6)CC5(C)C)CC4)ncc3Cl)ccc2n(C(C)C)c1=O (stereo not shown) [Compound 239] too.
≥ 70%

Check CNC(=O)COc1cc2cc(Nc3nc(N4CCC(O[C@H]5C[C@H](N6CCC(c7c(OC)cc8c(c7F)CN(C7CCC(=O)NC7=O)C8=O)CC6)C5)CC4)ncc3Cl)ccc2n(C(C)C)c1=O (stereo partly shown) [Compound 409] too.
≥ 70%
